- assay details: Pharmacokinetic analysis of compound 23 plasma concentrations in patients (LC-MS/MS, non-compartmental)
- Type: in vivo, human
- test context: human; Cycle 1 Day 1, 50 mg once daily (n = 2), plasma, geometric mean

{"compound smiles": "C[C@H]1CCCN(Cc2cc3c(c(C(F)(F)F)c2)CN(c2cccc([C@]4(c5nncn5C)C[C@@H](C)C4)c2)C3=O)C1", "measurement unit": "ng/mL", "Cmax": 79.2}

====

- assay details: Pharmacokinetic analysis of compound 23 plasma concentrations in patients (LC-MS/MS, non-compartmental)
- Type: in vivo, human
- test context: human; Cycle 1 Day 1, 50 mg once daily (n = 2), plasma, mean
measured quantity: half-life (h)

{"compound smiles": "C[C@H]1CCCN(Cc2cc3c(c(C(F)(F)F)c2)CN(c2cccc([C@]4(c5nncn5C)C[C@@H](C)C4)c2)C3=O)C1", "measured result": 5.88}

Where do these numbers come from? They come from patent US20230414598A1.
